Target: Transient receptor potential cation channel subfamily A member 1 (Homo sapiens)
Sequence (O75762 whole entry): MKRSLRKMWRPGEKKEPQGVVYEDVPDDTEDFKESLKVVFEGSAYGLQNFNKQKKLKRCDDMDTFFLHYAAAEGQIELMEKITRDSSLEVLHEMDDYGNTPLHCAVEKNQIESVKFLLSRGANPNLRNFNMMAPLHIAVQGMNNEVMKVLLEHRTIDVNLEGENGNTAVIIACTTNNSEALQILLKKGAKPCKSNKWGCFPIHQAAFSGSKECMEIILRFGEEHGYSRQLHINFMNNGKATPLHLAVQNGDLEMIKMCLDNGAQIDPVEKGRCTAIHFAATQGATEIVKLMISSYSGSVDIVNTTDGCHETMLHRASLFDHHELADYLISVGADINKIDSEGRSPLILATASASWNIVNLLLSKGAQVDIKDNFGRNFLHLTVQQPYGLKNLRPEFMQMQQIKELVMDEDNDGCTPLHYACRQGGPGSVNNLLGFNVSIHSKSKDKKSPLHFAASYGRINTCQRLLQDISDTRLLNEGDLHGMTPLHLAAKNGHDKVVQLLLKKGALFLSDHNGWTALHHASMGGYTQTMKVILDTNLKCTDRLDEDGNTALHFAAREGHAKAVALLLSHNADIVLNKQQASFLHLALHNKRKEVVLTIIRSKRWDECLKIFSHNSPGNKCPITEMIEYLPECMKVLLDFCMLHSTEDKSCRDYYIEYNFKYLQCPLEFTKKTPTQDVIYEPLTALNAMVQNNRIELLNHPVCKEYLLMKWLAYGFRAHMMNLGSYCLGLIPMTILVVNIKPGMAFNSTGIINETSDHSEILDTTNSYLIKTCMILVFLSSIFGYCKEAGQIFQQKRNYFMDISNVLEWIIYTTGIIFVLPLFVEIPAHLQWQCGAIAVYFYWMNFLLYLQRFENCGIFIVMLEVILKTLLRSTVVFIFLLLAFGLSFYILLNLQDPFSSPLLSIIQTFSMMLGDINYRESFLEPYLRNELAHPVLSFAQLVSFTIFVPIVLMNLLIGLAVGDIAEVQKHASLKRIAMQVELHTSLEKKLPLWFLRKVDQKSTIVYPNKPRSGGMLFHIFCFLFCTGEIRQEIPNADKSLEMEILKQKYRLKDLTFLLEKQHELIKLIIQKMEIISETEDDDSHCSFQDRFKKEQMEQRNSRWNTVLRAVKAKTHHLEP
Assay: Antagonist activity at human TRPA1 expressed in HEK293-TREx cells assessed as intracellular level after 48 of 72 hrs by Fluo-4 NW staining-based fluorescence analysis
pIC50: −log10 of the molar value.
Attribute: pIC50

Previously resolved entries follow.
| smiles.record | assay.metric | reported.measurement |
| --- | --- | --- |
| Fc1ccc(Oc2ncnc3ccoc23)c(F)c1 | pIC50 | < 4.49 |
| Fc1ccc(Oc2ncnc3cc[nH]c23)c(F)c1 | pIC50 | < 4.49 |
| COc1cc2ccnc(Oc3ccc(F)cc3)c2cc1OC | pIC50 | 6.48 |

Proceeding to the next molecule to report its pIC50.
IN: Please give measured pIC50 of the following entry: COc1ccc2ncnc(Oc3ccc(F)cc3F)c2c1
OUT: < 4.49
